Test system: SK-OV-3 ovarian
test.description: NCI tumour cell line growth inhibition, 48 h
I'd be grateful if you could share measured TGI for these entries.

Below: 3 compounds and their reported TGI.
COc1cccc(-n2nc(C)c3c(N/N=C(\C)c4ccncc4)ncnc32)c1 : > 25 µM
O=C1Nc2nc3ccccc3n2N=C2CCCC12 (centres undefined) : > 100 µM
Cc1cn(C2CC(O)C(COC(=O)NCCC(F)(F)C(F)(F)C(F)(F)C(F)(F)F)O2)c(=O)[nH]c1=O (centres undefined) : > 100 µM

From here, focus on the item given below.
input: For the compound shown here, O=c1oc(Cl)c(Cl)c2ccccc12 , give the reported TGI.
output: > 100 µM

* * *

Test system: DU-145 prostate
test.description: NCI tumour cell line growth inhibition, 48 h
Assignment: determine reported TGI for the given compounds.

Field: example entries. Status: answers known.
COc1ccc(C(=O)/C=C/c2cccc([N+](=O)[O-])c2)c(OC)c1 : > 50 µM
CC1CC2OC(=O)C(C)C2CC2(C)C(OC3OC(CO)C(O)C(O)C3O)OCCC12 (stereo not given) : > 100 µM
CC(=O)OCC1OC(OC2CC3C(C)(C)C(OC(C)=O)CC[C@]3(C)C3CCC45CC4(CCC5[C@@H](C)C[C@H](O)C(O)C(C)(C)O)[C@]23C)C(O)C(O)C1O (stereo not given in full) : > 10 µM

Take each entry in turn and give its TGI.
1. CCCCc1ccc(Nc2nc(SC)c3[nH]cnc3n2)cc1
2. S=C1N(/N=C/c2c3ccccc3cc3ccccc23)C(=Nc2ccccc2)C(=Nc2ccccc2)N1c1ccccc1

output:
1. > 100 µM
2. > 100 µM

* * *

Tested on: TK-10 renal
test.description: NCI tumour cell line growth inhibition, 48 h
readout.name: GI50

Solved entries (count: 2):
Cc1cc(O)c(C2=NN(c3ccc(S(N)(=O)=O)cc3)C(c3ccccc3Cl)C2)cc1Cl (stereo not drawn) : 2640 nM
CCC(C)[C@H]1O[C@]2(C=C[C@@H]1C)C[C@@H]1C[C@@H](C/C=C(\C)[C@@H](OC3C[C@H](OC)C(O[C@H]4C[C@H](OC)[C@@H](O)[C@H](C)O4)[C@H](C)O3)[C@@H](C)/C=C/C=C3\CO[C@@H]4[C@H](O)C(C)=C[C@@H](C(=O)O1)[C@]34O)O2 (stereo partly drawn) : 1070 nM

Now consider the entry below.
input: Item under review: COc1cc2c3c(n(CCCCN)c(=O)c2cc1OC)-c1cc2c(cc1C3=O)OCO2 . Reported GI50?
output: 3840 nM

* * *

Test system: NCI-H226 lung
test.description: NCI tumour cell line growth inhibition, 48 h
readout.name: TGI

Reference set, count: 2
O=C(CCCN1CCC2(CC1)CC(=O)N(N1CCCCCC1)C2=O)c1ccccc1 : > 100 µM
Clc1ccc(N=Nc2nc3ccccc3nc2N=Nc2ccc(Cl)cc2Cl)c(Cl)c1 : > 100 µM

The record that follows has no TGI shown yet.
input: Can you look up the measured TGI of Cn1c(O)c(C=Nc2ccccc2[N+](=O)[O-])c(=O)n(C)c1=O for me?
output: > 100 µM

* * *

System: NCI-H460 lung
Kindly supply the reported GI50 values for the records listed here.

COc1cccc(-n2nc(C)c3c(N/N=C(\C)c4ccncc4)ncnc32)c1 : > 25 µM
Cc1ccc(C(CC(=O)c2ccccc2)C2C(=O)NC(=O)NC2=O)cc1 (centres undefined) : > 100 µM
COc1cccc(-c2nn(-c3ccccc3)cc2-c2ccnc(NCCCNC(=O)Nc3ccc(Cl)c(Cl)c3)c2)c1 : 3.76 µM

Moving on to the next molecule.
input: Param readout = GI50; param system = NCI-H460 lung; param query = C=C1/C(=C\C=C2/CCC[C@]3(C)[C@@H]([C@H](C)CCCC(C)(C)O)CC[C@@H]23)C[C@@H](OC(=O)CBr)C[C@@H]1O ; response: value
output: 12 µM

The reported numbers originate from PubChem BioAssay (NCI).
